# target-of-assay: PI3Kα (Homo sapiens)
# Sequence (P42336 whole entry): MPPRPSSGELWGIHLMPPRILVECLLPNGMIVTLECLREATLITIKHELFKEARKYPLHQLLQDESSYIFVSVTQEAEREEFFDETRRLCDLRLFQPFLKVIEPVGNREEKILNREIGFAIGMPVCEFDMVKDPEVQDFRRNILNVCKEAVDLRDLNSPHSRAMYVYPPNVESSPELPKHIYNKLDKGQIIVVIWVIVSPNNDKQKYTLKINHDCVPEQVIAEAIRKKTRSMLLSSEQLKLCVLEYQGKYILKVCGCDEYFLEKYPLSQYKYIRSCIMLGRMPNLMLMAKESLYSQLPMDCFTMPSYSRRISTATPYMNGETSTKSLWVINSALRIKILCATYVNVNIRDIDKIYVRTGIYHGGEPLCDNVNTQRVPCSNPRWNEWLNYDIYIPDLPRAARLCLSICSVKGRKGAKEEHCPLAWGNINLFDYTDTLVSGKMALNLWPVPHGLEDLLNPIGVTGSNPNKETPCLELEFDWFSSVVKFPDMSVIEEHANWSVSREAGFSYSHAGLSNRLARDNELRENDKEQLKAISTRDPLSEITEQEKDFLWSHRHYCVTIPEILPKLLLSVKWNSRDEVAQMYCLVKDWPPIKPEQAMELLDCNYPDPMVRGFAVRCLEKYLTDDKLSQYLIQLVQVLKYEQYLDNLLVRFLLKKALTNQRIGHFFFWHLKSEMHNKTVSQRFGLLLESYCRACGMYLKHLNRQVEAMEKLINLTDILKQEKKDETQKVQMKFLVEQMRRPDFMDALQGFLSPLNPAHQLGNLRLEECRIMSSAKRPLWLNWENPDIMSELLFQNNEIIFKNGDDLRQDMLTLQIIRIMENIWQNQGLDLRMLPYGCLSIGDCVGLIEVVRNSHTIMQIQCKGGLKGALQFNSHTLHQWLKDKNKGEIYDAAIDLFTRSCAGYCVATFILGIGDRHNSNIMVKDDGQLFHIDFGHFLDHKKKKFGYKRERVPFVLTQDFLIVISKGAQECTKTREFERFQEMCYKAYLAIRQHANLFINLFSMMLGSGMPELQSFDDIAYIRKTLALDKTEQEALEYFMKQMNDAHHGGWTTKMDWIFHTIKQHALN
# Sequence (P27986 whole entry partner): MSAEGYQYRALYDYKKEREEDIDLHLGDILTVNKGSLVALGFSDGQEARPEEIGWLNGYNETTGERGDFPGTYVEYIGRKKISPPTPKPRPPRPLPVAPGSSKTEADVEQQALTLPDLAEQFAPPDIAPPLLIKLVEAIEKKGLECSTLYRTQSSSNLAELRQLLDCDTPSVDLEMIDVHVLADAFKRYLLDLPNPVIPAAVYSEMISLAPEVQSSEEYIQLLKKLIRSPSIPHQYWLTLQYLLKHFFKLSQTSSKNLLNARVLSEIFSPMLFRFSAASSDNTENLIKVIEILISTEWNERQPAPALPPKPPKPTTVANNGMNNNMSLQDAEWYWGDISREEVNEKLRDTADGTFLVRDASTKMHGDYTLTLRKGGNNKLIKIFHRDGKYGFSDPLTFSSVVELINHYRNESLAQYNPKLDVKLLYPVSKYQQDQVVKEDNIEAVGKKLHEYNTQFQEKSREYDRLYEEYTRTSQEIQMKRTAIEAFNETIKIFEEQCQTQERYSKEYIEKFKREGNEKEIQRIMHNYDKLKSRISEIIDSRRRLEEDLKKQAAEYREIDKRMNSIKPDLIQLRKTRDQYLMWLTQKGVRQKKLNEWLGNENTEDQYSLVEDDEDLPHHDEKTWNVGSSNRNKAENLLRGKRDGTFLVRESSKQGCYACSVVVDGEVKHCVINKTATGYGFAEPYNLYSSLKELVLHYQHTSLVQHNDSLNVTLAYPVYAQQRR
pIC50: −log10 of the molar value.
observation-type: pIC50

Example compounds with recorded pIC50:
compound	observation-type	result
Cc1nc2ccc(-c3ccc4c(c3)CN(C(=O)N3CCCCC3c3ccc(C)c(F)c3)CCO4)cc2[nH]1 (stereo not shown)	pIC50	6.70 to 7.12
O=C1CCN(C(=O)N2CCOc3ccc(-c4ccc(-c5ncc[nH]5)cc4)cc3C2)C(c2cccc(F)c2)C1 (stereo not shown)	pIC50	≥ 7.12
Cc1nc2ccc(-c3ccc4c(c3)CN(C(=O)N3CC5CCCC5C3)CCO4)cc2[nH]1 (stereo not shown)	pIC50	6.30 to 6.70
O=C1CCN(C(=O)N2CCOc3ccc(-c4ccc(-c5ncc[nH]5)cc4)cc3C2)C(c2ccc(F)c(F)c2)C1 (stereo not shown)	pIC50	≥ 7.12
COC(=O)Nc1nc2ccc(-c3ccc4c(c3)CN(C(=O)N3CCC(=O)CC3c3ccc(F)c(F)c3)CCO4)cc2[nH]1 (stereo not shown)	pIC50	≥ 7.12

For the compound COC(=O)Nc1nc2ncc(-c3ccc4c(c3)CN(C(=O)N3CCC(=O)CC3c3ccc(F)cc3)CCO4)cc2[nH]1 (stereo not shown) , give its reported pIC50.
≥ 7.12

For the compound Cc1nc2ccc(-c3ccc4c(c3)CN(C(=O)N3CCCCC3c3ccc(F)c(C)c3)CCO4)cc2[nH]1 (stereo not shown) , give its reported pIC50.
6.70 to 7.12

---

# target-of-assay: mTORC1 (mTOR/GbL/Raptor) (Homo sapiens, UniProt P42345)
# method: mTOR/GbL/Raptor (mTORC1) ELISA Assay
# Type: biochemical
# condition-summary: 0.2 nM mTORC1, 10 μM ATP, 50 nM NHis-tagged 4E-BP1; phosphorylation of 4E-BP1; read-out: IC50
pIC50: −log10 of the molar value.
observation-type: pIC50

molecule	target-of-assay	pIC50
Cc1nc2ccc(-c3ccc4c(c3)CN(C(=O)N3CCC(C(C)(C)O)CC3)CCO4)cc2[nH]1 [Compound 139]	mTORC1 (mTOR/GbL/Raptor) (Homo sapiens, UniProt P42345)	6.60 to 7.30
Cc1nc2ccc(-c3ccc4c(c3)CN(C(=O)N3CCN(c5ccccc5Cl)CC3)CCO4)cc2[nH]1 [Compound 159]	mTORC1 (mTOR/GbL/Raptor) (Homo sapiens, UniProt P42345)	5.59 to 6.15
CCNc1nc2ccc(-c3ccc4c(c3)CN(C(=O)N3CCC(=O)CC3c3cccc(F)c3)CCO4)cc2[nH]1 (stereo not shown) [Compound 30]	mTORC1 (mTOR/GbL/Raptor) (Homo sapiens, UniProt P42345)	≥ 7.30

Enter measured pIC50, system mTORC1 (mTOR/GbL/Raptor) (Homo sapiens, UniProt P42345), for the molecule shown: CCNc1nc2ncc(-c3ccc4c(c3)CN(C(=O)N3[C@@H]5CC[C@H]3C[C@](O)(C(F)(F)F)C5)CCO4)cc2[nH]1 [Compound 179]
≥ 7.30

Enter measured pIC50, system mTORC1 (mTOR/GbL/Raptor) (Homo sapiens, UniProt P42345), for the molecule shown: Cc1nc2ccc(-c3ccc4c(c3)CN(C(=O)N3CCCC(Cc5ccccc5)C3)CCO4)cc2[nH]1 (stereo not shown) [Compound 106]
6.15 to 6.60

Enter measured pIC50, system mTORC1 (mTOR/GbL/Raptor) (Homo sapiens, UniProt P42345), for the molecule shown: Nc1nc2ccc(-c3ccc4c(c3)CN(C(=O)N3CCC(=O)CC3c3ccc(F)c(F)c3)CCO4)cc2[nH]1 (stereo not shown) [Compound 27]
≥ 7.30

Enter measured pIC50, system mTORC1 (mTOR/GbL/Raptor) (Homo sapiens, UniProt P42345), for the molecule shown: Cc1nc2ccc(-c3ccc4c(c3)CN(C(=O)N3CCC(Oc5ccc(Cl)cc5)CC3)CCO4)cc2[nH]1 [Compound 70]
6.60 to 7.30
